- assay: budding yeast growth modifiers under rapamycin – strain BY4716, OD600, 96 h, primary screen (AID 1091); also: test concentration not given here
- condition: S. cerevisiae BY4716 + rapamycin, higher = more signal, called active from +8 up or from −8 down

compound | z-score
CC(C)C(O)C1C=CC2C(=O)NC(=O)C2N1Nc1ccccn1 (centres undefined) | 0.56
O=C1O[C@@H](c2ccccc2)[C@@H](c2ccccc2)N2[C@@H](c3ccccc3OCCO)[C@]3(C(=O)Nc4ccc(C#CCCO)cc43)[C@@H](C(=O)NC[C@H](O)c3ccccc3)[C@H]12 | 4.29
O=C1O[C@@H](c2ccccc2)[C@@H](c2ccccc2)N2[C@@H](c3ccc(OCCO)cc3)[C@]3(C(=O)Nc4ccc(C#CC5(O)CCCCCC5)cc43)[C@@H](C(=O)O)[C@H]12 | 0.757
CC(C)(C)N1CC=CC23O[C@@H]4/C=C\CCCOC(=O)C4[C@H]2C(=O)N(CCCO)[C@@H]3C1=O (some centres undefined) | -0.766
COc1ccc(C(=O)Nc2ccc3c(c2)[C@@]2(O[C@H](CCO)[C@@H]([Si](C)(C)c4ccc(OC)cc4)[C@@H]2C)C(=O)N3Cc2ccccc2)cc1 | 2.7
Cc1ccc(S[C@]2(C(=O)NCCCN(C)C)CC(=O)N(Cc3ccccc3C(F)(F)F)[C@@H]2c2ccc(CO)cc2I)cc1 | 0.0267
NC(=O)N1C(=O)C2C(C1=O)C1C=C(CCCO)C2C(C2CC2)N1Cc1sc2ccccc2c1Cl (centres undefined) | -1.63
CC=CC(O)C1C=CC2C(=O)NC(=O)C2N1Nc1ccc(Cl)cc1Cl (centres undefined) | 0.624
CC1CC/C=C\[C@H]2OC34C=CCN(c5ccc(Cl)cc5)C(=O)[C@H]3N(CCCCCCO)C(=O)[C@]4(C)C2C(=O)O1 (some centres undefined) | 0.187
COCCOC(=O)N1C(=O)[C@@]2(c3cc(C#CCC(C(=O)OC)C(=O)OC)ccc31)[C@H](C(=O)Nc1nc3ccccc3s1)[C@H]1C(=O)O[C@H](c3ccccc3)[C@H](c3ccccc3)N1[C@@H]2c1ccc(O)cc1 | 1.16
C=CCOC(=O)[C@H]1[C@@H]2C(=O)O[C@@H](c3ccccc3)[C@@H](c3ccccc3)N2[C@@H](c2ccc(OCCOC(=O)[C@@H]3C[C@@H]4C(=O)N[C@@H](CCCCNC(C)=O)C(=O)N4[C@@H]3c3cccc(OCCO)c3)cc2)[C@]12C(=O)Nc1ccccc12 | 2.18
COc1cc(C(O)C2C=CC3C(=O)N(c4ccccc4)C(=O)C3N2Nc2ccccc2)cc(OC)c1OC (centres undefined) | -0.205
COC(=O)[C@@]1(Cc2ccc(OC)cc2)[C@H]2c3cc(C(=O)N4CCCC4)n(Cc4c(CO)[nH]cc(C)c4=O)c3C[C@H]2CN1C(=O)c1ccccc1 | 0.147
C=C(CCCC)/C(=C/C[C@H](OC(=O)c1ccncc1)c1ccc(OCCO)cc1)c1cnc2ccccc2c1 | 0.199

---

- system name: E3 ubiquitin-protein ligase XIAP (Homo sapiens) (UniProt P98170)
- Sequence (P98170 whole entry, looked up): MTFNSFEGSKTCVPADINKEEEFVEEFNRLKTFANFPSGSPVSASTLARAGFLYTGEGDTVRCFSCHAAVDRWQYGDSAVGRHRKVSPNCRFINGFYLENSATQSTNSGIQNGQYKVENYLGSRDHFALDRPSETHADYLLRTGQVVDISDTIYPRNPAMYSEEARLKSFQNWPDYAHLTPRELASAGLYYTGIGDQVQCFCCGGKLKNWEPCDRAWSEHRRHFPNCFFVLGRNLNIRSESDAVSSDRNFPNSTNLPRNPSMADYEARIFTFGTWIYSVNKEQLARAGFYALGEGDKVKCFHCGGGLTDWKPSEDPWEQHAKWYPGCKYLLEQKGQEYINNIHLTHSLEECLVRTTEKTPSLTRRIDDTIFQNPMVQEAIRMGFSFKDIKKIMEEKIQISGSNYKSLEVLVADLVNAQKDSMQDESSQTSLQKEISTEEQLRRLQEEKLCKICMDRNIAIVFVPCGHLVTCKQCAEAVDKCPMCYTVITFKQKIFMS
- assay: small molecules binding XIAP protein – biophysical, small-molecule microarray, fluorescence 635 nm, primary screen (AID 1181);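 also: score merges 667 nm emission and signal to noise over triplicate slides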
- condition: higher = more signal

compound | composite z-score
COC(=O)[C@@]1(Cc2ccc(OC)cc2)[C@H]2c3cc(C(=O)N4CCCC4)n(CCn4cc([N+](=O)[O-])nc4C)c3C[C@H]2CN1C(=O)c1ccccc1 | 0.111
COCCOC(=O)N1C(=O)[C@@]2(c3cc(C#CC4(O)CCCCCC4)ccc31)[C@H](c1ccc(O)cc1)N1[C@H](c3ccccc3)[C@H](c3ccccc3)OC(=O)[C@H]1[C@@H]2C(=O)N1CCCCCCC1 | -0.0351
CN(C)CCCNC(=O)[C@@]1(C)c2ccccc2C(=O)N(Cc2ccc(OC(F)(F)F)cc2)[C@H]1c1ccc(CO)cc1 | -0.156
Cc1ccc(F)cc1S(=O)(=O)N[C@H]1CCN(Cc2ccc(OC(C)C)cc2)C1 | -0.0773
O=C1C2C=CC(C(O)c3cccs3)N(Nc3ccc([N+](=O)[O-])cc3)C2C(=O)N1c1ccccc1 (stereo not given) | -0.177
C=CCNC(=O)[C@@H]1[C@H]2C(=O)O[C@H](c3ccccc3)[C@H](c3ccccc3)N2[C@H](c2ccc(OCCO)cc2)[C@@]12C(=O)Nc1ccc(C#CC3(O)CCCCCC3)cc12 | -0.0095
CN1C(=O)[C@@H]2[C@@H](CC(COc3ccccc3)=C3[C@@H](CCc4ccccc4)OB(O)C[C@@H]32)C1=O | -0.02
CC(C)(C)N1CC=CC23O[C@@H]4C=CCCOC(=O)C4[C@H]2C(=O)N(CCCCCCO)[C@@H]3C1=O (stereo not given in full) | 0.189
O=C1O[C@@H](c2ccccc2)[C@@H](c2ccccc2)N2[C@@H](c3ccc(OCCO)cc3)[C@]3(C(=O)Nc4ccc(C#CC5(O)CCCCCC5)cc43)[C@@H](C(=O)Nc3nc4ccccc4s3)[C@H]12 | 0.147
CC(C)=C1C(=O)C(c2ccccc2)=C2CN3C(=O)N(CCc4ccccc4)C(=O)[C@]3(C)[C@H]21 | 0.387
CC(C)=CCCC(C)=CC(O)C1C=CC2C(=O)NC(=O)C2N1Nc1ccc(Cl)cc1Cl (stereo not given) | -0.0326
COC(=O)[C@@]1(Cc2ccccc2)[C@H]2c3cc(C(=O)N(C)C)n(Cc4ccc(C(F)(F)F)nc4)c3C[C@H]2CN1C(=O)c1ccccc1 | -0.242
C=CC[C@@]12N=C(c3ccc(OCCCO)cc3)O[C@@H]1c1ccccc1N(CCC)C2=O | -0.132
CCCCC(O)C1C=CC2C(=O)N(c3ccccc3)C(=O)C2N1Nc1ccc([N+](=O)[O-])cc1 (stereo not given) | -0.156
C=C(COC)C(=O)CC[C@H](OC(=O)c1cccnc1)c1ccc(OCCO)cc1 | -0.0013

---

- assay: inhibition of PAO1 biofilm formation – strain PAO1, LB-PBS medium, absorbance 600 nm, primary screen (AID 1176); also: test concentration not given here
- condition: P. aeruginosa PAO1 growth/biofilm, A600, 12 h; higher = more signal
Calls of active or inactive are those of the source. How the calls were made is not given here.
z-score listing for selected molecules.

structure smiles string | z-score
C=C(CCCC)/C(=C/C[C@@H](OC(C)=O)c1ccc(CO)o1)c1cnc2ccccc2c1 | 0.0022 (inactive)
C=CC[C@@]1(C(=O)N(C)C)N=C(c2ccc(OCCCO)cc2)O[C@@H]1c1ccccc1CN=[N+]=[N-] | -0.345 (inactive)
CCCC[C@H]1OB(O)C[C@H]2C1=C(COc1ccccc1)C[C@H]1C(=O)C=CC(=O)[C@H]12 | 0.531 (inactive)
COc1ccc([Si](C)(C)[C@@H]2[C@@H](CC(=O)N3Cc4ccccc4C[C@H]3CO)O[C@]3(C(=O)N(Cc4cccc(N5CCOC5=O)c4)c4ccccc43)[C@H]2C)cc1 | 0.79 (inactive)

---

- assay: blockers of DNA damage checkpoint Chk1 activation – imaging, HeLa, hydroxyurea, phospho-Chk1 nuclear intensity, primary screen (AID 1187); also: test concentration not given here
- condition: hydroxyurea-induced phospho-Chk1 immunofluorescence imaging, higher = more signal
# key: entry, value: z-score

compound | z-score
CO[C@H]1O[C@H](CO)[C@@H](OC(=O)Nc2ccc3c(c2)OCO3)[C@H](OC(=O)Nc2ccccc2-c2ccccc2)[C@H]1OC(=O)Nc1ccccc1-c1ccccc1 | 0.444
COCCOC(=O)N1C(=O)[C@@]2(c3ccccc31)[C@H](C(=O)N1CCN(c3ncccn3)CC1)[C@H]1C(=O)O[C@H](c3ccccc3)[C@H](c3ccccc3)N1[C@@H]2c1ccccc1OCCO | -0.484
COCCOC(=O)N1C(=O)[C@@]2(c3cc(C#CCC(C(=O)OC)C(=O)OC)ccc31)[C@H](C(=O)Nc1nc3ccccc3s1)[C@H]1C(=O)O[C@H](c3ccccc3)[C@H](c3ccccc3)N1[C@@H]2c1ccc(O)cc1 | 0.359
COC(=O)C[C@H]1O[C@@]2(C[C@@H]1[Si](C)(C)C)C(=O)N(C)c1ccccc12 | -0.0422
COC(=O)[C@@]1(Cc2ccc(OC)cc2)[C@H]2c3cc(C(=O)N(C)C)[nH]c3C[C@H]2CN1C(=O)c1ccccc1 | -0.309
CCOc1cc(C(O)C2C=CC3C(=O)N(c4ccccc4)C(=O)C3N2Nc2ccccc2F)ccc1O (stereo unspecified) | -0.304

---

Measured z-score values are reported for all entries that follow.
- system name: NADPH oxidase 5 (Homo sapiens) (UniProt Q96PH1)
- Sequence (Q96PH1 whole entry, looked up): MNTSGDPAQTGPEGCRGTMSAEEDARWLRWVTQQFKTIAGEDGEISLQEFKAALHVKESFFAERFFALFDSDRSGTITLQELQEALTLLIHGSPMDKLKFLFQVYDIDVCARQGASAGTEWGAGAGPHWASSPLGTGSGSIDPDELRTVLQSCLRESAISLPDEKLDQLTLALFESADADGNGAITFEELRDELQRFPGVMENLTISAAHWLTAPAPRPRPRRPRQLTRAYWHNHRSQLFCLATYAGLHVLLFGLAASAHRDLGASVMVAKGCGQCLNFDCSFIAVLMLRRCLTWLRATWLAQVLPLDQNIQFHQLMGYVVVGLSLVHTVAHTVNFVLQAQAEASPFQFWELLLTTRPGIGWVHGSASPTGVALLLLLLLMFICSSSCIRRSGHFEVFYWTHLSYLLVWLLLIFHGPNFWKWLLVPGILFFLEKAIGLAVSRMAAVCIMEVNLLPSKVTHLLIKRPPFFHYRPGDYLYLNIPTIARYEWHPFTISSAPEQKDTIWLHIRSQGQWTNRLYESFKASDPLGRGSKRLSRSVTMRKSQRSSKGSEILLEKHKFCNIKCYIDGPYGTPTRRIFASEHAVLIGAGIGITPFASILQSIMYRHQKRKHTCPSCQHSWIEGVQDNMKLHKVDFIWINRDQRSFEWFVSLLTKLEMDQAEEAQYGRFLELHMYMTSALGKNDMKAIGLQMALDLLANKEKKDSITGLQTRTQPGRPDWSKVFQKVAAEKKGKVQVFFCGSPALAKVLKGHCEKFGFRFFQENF
- assay: compounds shifting NOX5 Amplex Red fluorescence – cell-based, HEK293-NOX5, NOX inhibitor project, primary screen (AID 1161)
- condition: HEK293-NOX5, ionomycin, 45 min, higher = more signal
experimental endpoint: z-score

structure smiles string | system name | result
O=C1O[C@H](c2ccccc2)[C@H](c2ccccc2)N2[C@H]1[C@@H](C(=O)O)[C@]1(C(=O)Nc3ccc(C#CCCO)cc31)[C@H]2c1ccc(OCCO)cc1 | NADPH oxidase 5 (Homo sapiens) (UniProt Q96PH1) | 0.51
O=C1C[C@@](C(=O)O)(c2ccc([N+](=O)[O-])cc2)[C@@H](c2ccc(CO)cc2)N1C1CCCCC1 | NADPH oxidase 5 (Homo sapiens) (UniProt Q96PH1) | 0.369
COC(=O)C(CC#Cc1ccc2c(c1)[C@]1(C(=O)N2)[C@H](c2ccccc2OCCO)N2[C@H](c3ccccc3)[C@H](c3ccccc3)OC(=O)[C@H]2[C@@H]1C(=O)N1CCc2cc(OC)c(OC)cc2C1)C(=O)OC | NADPH oxidase 5 (Homo sapiens) (UniProt Q96PH1) | 1.73
COc1ccc([Si](C)(C)[C@H]2[C@H](CC(=O)N3Cc4ccccc4C[C@H]3CO)O[C@@]3(C(=O)N(c4ccccc4)c4ccccc43)[C@@H]2C)cc1 | NADPH oxidase 5 (Homo sapiens) (UniProt Q96PH1) | -2.51
COCCOC(=O)N1C(=O)[C@@]2(c3ccccc31)[C@H](c1ccc(O)cc1)N1[C@H](c3ccccc3)[C@H](c3ccccc3)OC(=O)[C@H]1[C@@H]2C(=O)N1CCCCCCC1 | NADPH oxidase 5 (Homo sapiens) (UniProt Q96PH1) | 1.32
CCCNC(=O)[C@@]1(Sc2ccc(C)cc2)CC(=O)N(Cc2ccccc2Cl)[C@@H]1c1ccc(CO)cc1I | NADPH oxidase 5 (Homo sapiens) (UniProt Q96PH1) | 1.87
